# assay notes: Metabolic stability in rat liver microsomes assessed as intrinsic clearance
# Format: ADME, Microsome
endpoint name: microsomal CLint (µL/min/mg)

I: CC(=O)CCCCC[C@H](NC(=O)C1CCN(C)CC1)c1ncc(-c2ccc(-c3ccccc3)cc2)[nH]1
II: CC(=O)CCCCC[C@H](NC(=O)C1CCN(C)CC1)c1ncc(-c2ccccc2)[nH]1
stdin: Record comparison, field microsomal CLint: mark the lower of I and II . When you have decided, please share the label of that item.
stdout: II
(II: 68 µL/min/mg, I: 170 µL/min/mg)

---

# assay notes: Metabolic stability in rat liver microsomes assessed as intrinsic clearance
# Format: ADME, Microsome
endpoint name: microsomal CLint (µL/min/mg)

CC(=O)CCCCC[C@H](NC(=O)C1CCN(C)CC1)c1ncc(-c2ccc(C#N)cc2)[nH]1 ... 330

I: CC(=O)CCCCC[C@H](NC(=O)C1CCN(C)C1)c1ncc(-c2ccccc2)[nH]1 (stereo not given in full)
II: CC(=O)CCCCC[C@H](NC(=O)C1CCCN(C)C1)c1ncc(-c2ccccc2)[nH]1 (stereo not given in full)
stdin: Record comparison, field microsomal CLint: mark the lower of I and II . When you have decided, please share the label of that item.
stdout: II
(II: 154 µL/min/mg, I: 501 µL/min/mg)

---

# System: HCT-116
# assay notes: Antiproliferative activity against human HCT116 cells after 72 hrs by celltiter-blue viability assay
# Format: functional, cell-based
# assay setup: HCT-116, 72 h
endpoint name: pIC50
Scale explanation: pIC50 corresponds to minus log10 of a concentration expressed in moles per litre.

stdin: I have this molecule here, CC(=O)CCCCC[C@H](NC(=O)C1CCN(C)CC1)c1ncc(-c2ccc3ccccc3c2)[nH]1 , and I need its recorded pIC50.
stdout: 6.23

---

# assay notes: Oral bioavailability dog
# Assay type: ADME, organism-based, Canis lupus familiaris
# assay setup: in vivo
endpoint name: bioavailability (%)
Give just the number in %; leave the unit off.

stdin: I have this compound here, CC(=O)CCCCC[C@H](NC(=O)C1CCN(C)CC1)c1ncc(-c2ccc3ccccc3c2)[nH]1 , and I need its recorded bioavailability.
stdout: 28

---

# assay notes: Protein binding in human plasma
# Assay type: ADME, cell-free
# assay setup: read-out: PPB (converted)
endpoint name: fraction unbound
The answer should be a number; do not append a unit.

stdin: I have this compound here, CC(=O)CCCCC[C@H](NC(=O)C1CCN(C)CC1)c1ncc(-c2ccc3ccccc3c2)[nH]1 , and I need its recorded fraction unbound.
stdout: 0.04

---

Consider molecules characterized by their IC50 with Histone deacetylase 1 (Homo sapiens, UniProt Q13547).
Sequence (Q13547 whole entry): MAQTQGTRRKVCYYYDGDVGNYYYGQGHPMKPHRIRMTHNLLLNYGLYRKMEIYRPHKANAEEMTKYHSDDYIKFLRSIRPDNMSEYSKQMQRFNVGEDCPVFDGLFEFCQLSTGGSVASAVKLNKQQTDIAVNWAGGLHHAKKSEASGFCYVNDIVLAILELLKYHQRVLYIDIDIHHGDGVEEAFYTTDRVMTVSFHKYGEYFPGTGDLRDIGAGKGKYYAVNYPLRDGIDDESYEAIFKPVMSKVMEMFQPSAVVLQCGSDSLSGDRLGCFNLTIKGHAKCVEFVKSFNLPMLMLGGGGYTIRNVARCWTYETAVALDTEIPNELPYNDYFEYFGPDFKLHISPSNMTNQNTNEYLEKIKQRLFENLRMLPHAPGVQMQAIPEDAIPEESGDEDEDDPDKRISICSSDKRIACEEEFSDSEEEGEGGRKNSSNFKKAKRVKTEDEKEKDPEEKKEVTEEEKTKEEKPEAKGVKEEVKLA
endpoint name: IC50 (nM)

// worked examples, IC50 included
CC(=O)CCCCC[C@H](NC(=O)C1CCN(C)CC1)c1ncc(-c2ccc(F)cc2)[nH]1 ... 380
COc1ccc(S(=O)(=O)N[C@@H](CCCCCC(C)=O)c2ncc(-c3ccccc3)[nH]2)cc1 ... 250
CC(=O)CCCCC[C@H](NC(=O)C1CCCN(C)C1)c1ncc(-c2ccccc2)[nH]1 (stereo partly drawn) ... 220
CC(=O)CCCCC[C@H](NC(=O)C1CCN(C)CC1)c1ncc(-c2ccccc2)[nH]1 ... 250

1: CC(=O)CCCCC[C@H](NC(=O)C1CCN(C)C1)c1ncc(-c2ccccc2)[nH]1 (stereo partly drawn)
2: CC(=O)CCCCC[C@H](NS(=O)(=O)c1cccc([N+](=O)[O-])c1)c1ncc(-c2ccccc2)[nH]1
3: CC(=O)CCCCC[C@H](NC(=O)C1CCN(C)CC1)c1ncc(-c2cccc(Cl)c2)[nH]1
stdin: Ordering criterion: IC50; begin with the maximum. Kindly provide the labels arranged according to the requested ordering.
stdout: 1, 3, 2
(1: 280 nM, 3: 90 nM, 2: 55 nM)
